- measurement target: RIG-I (Homo sapiens)
- Construct: endogenous in cells; host or cells: 293T cells
- Sequence (O95786 whole entry): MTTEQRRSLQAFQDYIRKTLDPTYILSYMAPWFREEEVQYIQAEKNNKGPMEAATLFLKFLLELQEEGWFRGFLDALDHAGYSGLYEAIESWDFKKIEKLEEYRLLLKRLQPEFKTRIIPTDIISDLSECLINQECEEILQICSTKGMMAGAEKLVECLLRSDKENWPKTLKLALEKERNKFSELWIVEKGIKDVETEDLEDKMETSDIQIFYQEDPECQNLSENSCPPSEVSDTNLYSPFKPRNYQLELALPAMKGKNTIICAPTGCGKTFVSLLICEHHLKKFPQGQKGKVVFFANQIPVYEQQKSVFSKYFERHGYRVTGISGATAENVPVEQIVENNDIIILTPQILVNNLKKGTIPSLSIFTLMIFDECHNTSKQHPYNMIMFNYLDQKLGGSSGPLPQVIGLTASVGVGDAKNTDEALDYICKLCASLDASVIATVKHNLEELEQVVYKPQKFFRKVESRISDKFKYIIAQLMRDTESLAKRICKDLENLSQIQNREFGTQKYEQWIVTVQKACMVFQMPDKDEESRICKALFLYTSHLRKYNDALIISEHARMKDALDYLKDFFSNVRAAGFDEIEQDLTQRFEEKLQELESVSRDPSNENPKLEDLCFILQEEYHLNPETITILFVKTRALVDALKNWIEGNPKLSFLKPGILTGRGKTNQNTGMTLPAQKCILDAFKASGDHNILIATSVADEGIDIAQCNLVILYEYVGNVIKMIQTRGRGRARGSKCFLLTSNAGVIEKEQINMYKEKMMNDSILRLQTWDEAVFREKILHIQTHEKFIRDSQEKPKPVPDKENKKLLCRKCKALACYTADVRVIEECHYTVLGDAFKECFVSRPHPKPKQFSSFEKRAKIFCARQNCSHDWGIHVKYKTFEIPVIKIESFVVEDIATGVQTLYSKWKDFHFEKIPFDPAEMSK
- test method notes: Binding ability of mRNA to RIG-I (RNA co-immunoprecipitation, RT-qPCR) in transfected 293T cells
- Type: cell-based
- setup conditions: eGFP mRNA made with the cap analog, 24 h after transfection
Note to self: use satisfied only for Relative binding ability to RIG-I readings below 2; a reading exactly at 2 still gets not satisfied.

[
  {
    "compound": "COC1C(OP(=O)(O)OC[C@H](CO)O[C@H](CO)n2cnc3c(=O)[nH]c(N)nc32)[C@@H](COP(=O)(O)OP(=O)(O)OP(=O)([O-])OC[C@H]2O[C@@H](n3c[n+](C)c4c(=O)[nH]c(N)nc43)C(O)C2O)O[C@H]1n1cnc2c(N)ncnc21 (stereo partly shown) [Comparative Example 2, reference compound]",
    "label class": "not satisfied"
  },
  {
    "compound": "COC[C@@H](O[C@@H](COP(=O)(O)OC[C@H](CO)O[C@H](CO)n1cnc2c(=O)[nH]c(N)nc21)COP(=O)(O)OP(=O)([O-])OP(=O)(O)OC[C@H](CO)O[C@H](CO)n1c[n+](C)c2c(=O)[nH]c(N)nc21)n1cnc2c(N)ncnc21",
    "label class": "not satisfied"
  },
  {
    "compound": "CO[C@H]1C(OP(=O)(O)OC[C@H](CO)O[C@H](CO)n2cnc3c(=O)[nH]c(N)nc32)[C@@H](COP(=O)(O)OP(=O)([O-])OP(=O)(O)OC[C@H](CO)O[C@H](CO)n2c[n+](C)c3c(=O)[nH]c(N)nc32)O[C@H]1n1cnc2c(N)ncnc21 (stereo partly shown)",
    "label class": "not satisfied"
  },
  {
    "compound": "COC[C@@H](COP(=O)(O)OP(=O)([O-])OP(=O)(O)OC[C@H]1O[C@@H](n2cnc3c(N)ncnc32)C(OC)C1OP(=O)(O)OC[C@H]1O[C@@H](n2cnc3c(=O)[nH]c(N)nc32)C(O)C1O)O[C@H](CO)n1c[n+](C)c2c(=O)[nH]c(N)nc21 (stereo in doubt)",
    "label class": "satisfied"
  },
  {
    "compound": "C[n+]1cn([C@@H](CO)O[C@@H](CO)COP(=O)([O-])OP(=O)(O)OP(=O)(O)OC[C@]23COC(C2OP(=O)(O)OC[C@H]2O[C@@H](n4cnc5c(=O)[nH]c(N)nc54)C(O)C2O)[C@H](n2cnc4c(N)ncnc42)O3)c2nc(N)[nH]c(=O)c21 (stereo partly shown)",
    "label class": "not satisfied"
  },
  {
    "compound": "COC1C(OP(=O)(O)OC[C@H]2O[C@@H](n3cnc4c(=O)[nH]c(N)nc43)C(O)C2O)[C@@H](COP(=O)(O)OP(=O)(O)OP(=O)([O-])OC[C@H]2O[C@@H](n3c[n+](C)c4c(=O)[nH]c(N)nc43)C(O)C2O)O[C@H]1n1cnc2c(N)ncnc21 (stereo in doubt) [Comparative Example 1, ^m7GpppA2′OMepG, reference compound]",
    "label class": "not satisfied"
  },
  {
    "compound": "COCCOC1C(OP(=O)(O)OC[C@H]2O[C@@H](n3cnc4c(=O)[nH]c(N)nc43)C(O)C2O)[C@@H](COP(=O)(O)OP(=O)(O)OP(=O)([O-])OC[C@H](CO)O[C@H](CO)n2c[n+](C)c3c(=O)[nH]c(N)nc32)O[C@H]1n1cnc2c(N)ncnc21 (stereo partly shown)",
    "label class": "satisfied"
  }
]
